Test system: RARb homodimer (NR concentration 270 nM)
assay.text: PBM binding z-score (relative to random genomic background probes); higher = stronger binding; sequences stand for … in GC…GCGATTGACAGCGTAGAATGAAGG
Returns the class for an entry based on its PBM binding z-score. Class ranges: low bracket (below 1), middle bracket (1 to below 3), high bracket (3 or more)

Look over these answered cases.
[[record]]
seq = "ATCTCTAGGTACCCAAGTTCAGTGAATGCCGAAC"
target = "RARb homodimer (NR concentration 270 nM)"
class = "middle bracket"

[[record]]
seq = "ATCTCGAGGTAACAAGTTCAGTGAAAGAGAGGAC"
target = "RARb homodimer (NR concentration 270 nM)"
class = "middle bracket"

[[record]]
seq = "TCGAGTAGGTTACAAATGGGGCATTCAGCTTTCT"
target = "RARb homodimer (NR concentration 270 nM)"
class = "low bracket"

[[record]]
seq = "TATACAGGGTCAAAGGCCACAGTACGAATGTCGA"
target = "RARb homodimer (NR concentration 270 nM)"
class = "high bracket"

[[record]]
seq = "ATACCATGGTGATCGTGAGGTCGTTGATACTAAC"
target = "RARb homodimer (NR concentration 270 nM)"
class = "middle bracket"

[[record]]
seq = "ACTAGCAGGCCAAGTTTGGGTCCCTCAAACAAAG"
target = "RARb homodimer (NR concentration 270 nM)"
class = "low bracket"


stdin: Band for the recorded PBM binding z-score of `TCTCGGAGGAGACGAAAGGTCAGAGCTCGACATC` ?
stdout: high bracket

stdin: Also check `TGGCCTAGGTCATTCAGGGGCCAGTATAGAAAGC`
stdout: high bracket

###

System: RARb:RXRa (NR concentration 270 nM, RXRa partner concentration 90 nM)
assay.text: PBM binding z-score (relative to random genomic background probes); higher = stronger binding; sequences stand for … in GC…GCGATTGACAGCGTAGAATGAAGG
Entry flag: 1 if PBM binding z-score reaches 2; -1 if it does not.

[[record]]
seq = "CAGCCTAGGTCGGGGCCAGTATAGGAGGAACGTT"
class = -1

[[record]]
seq = "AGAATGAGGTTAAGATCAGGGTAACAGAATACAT"
class = 1

[[record]]
seq = "CGAACGAGGGCACGAGTTGATAGCAAATGCCGAT"
class = 1

[[record]]
seq = "CAAACTAGGTCACAGCGGTCAAAGTCCGTGCGTA"
class = 1

[[record]]
seq = "TTACCAAGGTGAAAGGTCGTTGTTGCACGCCTTG"
class = 1


stdin: Is the recorded value of PBM binding z-score equal to or greater than 2 for this sequence? `TCGAGTAGGTTAGGAGCATTCAGAATGGCGTCGA`
stdout: -1

stdin: Moving on to `GCGACTGCGGCATCAGCAGGTTACCATAACTTAA`
stdout: -1

stdin: Same again, this time with `TCTTGTAGATCAAAGGTTGAGAAAGCCGAAGCCT`
stdout: -1

stdin: Same thing, different sequence: `CGTCCAAGGTCAGAGAGGTAAGTGAATGCCGAGT`
stdout: 1

stdin: Try `CTACCAAGGTGCACAAGGTCGTTGATTACTATTC` next.
stdout: -1

stdin: # repeat for `CGTCAAAGTTCAACTAAGGTAACGGAAAGCACGC`
stdout: 1

stdin: Same thing, different sequence: `TCTATTAGTTGATTAGGGCAACAGAAACAGCGGA`
stdout: -1

stdin: // same read-out, input: `CCGAGTAGGTTATGGGGCATCCAGGCAACGGTGA`
stdout: -1

###

Tested on: PPARg homodimer (NR concentration 180 nM)
assay.text: PBM binding z-score (relative to random genomic background probes); higher = stronger binding; sequences stand for … in GC…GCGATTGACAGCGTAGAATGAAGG
Parameter: PBM binding z-score. Scope: all listed entries.
No unit in the answer, only the number.

Past entries and their recorded results:
[[record]]
seq = "CAGACAGGGTCAGCTAGGCCAGAGTAGGGACGGC"
target = "PPARg homodimer (NR concentration 180 nM)"
data_value = 1.26

[[record]]
seq = "CTGACTGGGGCAAGGTTACCATAACGCACAGCCA"
target = "PPARg homodimer (NR concentration 180 nM)"
data_value = 0.436

[[record]]
seq = "CCTACTGGGCCACGAAAGGTCATTGATTCAGTGA"
target = "PPARg homodimer (NR concentration 180 nM)"
data_value = 4.26

[[record]]
seq = "GGAACGAGGGCAAAGTCGATAGCATCTGTCGACG"
target = "PPARg homodimer (NR concentration 180 nM)"
data_value = -0.309

[[record]]
seq = "TTACCAAAGTGAAGGTCGTTGATCCCTCTGTAGA"
target = "PPARg homodimer (NR concentration 180 nM)"
data_value = 0.00936

[[record]]
seq = "AGTCAAAGCTCATCTAGGTAACGTAAGATATGCT"
target = "PPARg homodimer (NR concentration 180 nM)"
data_value = -0.497

[[record]]
seq = "AGAATGAGATTATACGTAGATCAGGGAAGAAAGT"
target = "PPARg homodimer (NR concentration 180 nM)"
data_value = -0.24

[[record]]
seq = "GTACGAAGGTGAATAGGTCGTTGATGAGTAGGCG"
target = "PPARg homodimer (NR concentration 180 nM)"
data_value = 0.859


stdin: Give its PBM binding z-score value. Item: `TGTTGTAGATCAACAGGAGGTTAAGAAAGATCGA`
stdout: 0.107

stdin: Similarly, `ATACTAAGGTGATCGTGAGGTCGTTGATACTAAC` ?
stdout: 1.65

stdin: Also check `ATCTCTAAGTAAGACTCAGTTCAGTGAAGAACGC`
stdout: 0.659

###

Tested on: FXR:RXRa (NR concentration 270 nM, RXRa partner concentration 90 nM)
assay.text: PBM binding z-score (relative to random genomic background probes); higher = stronger binding; sequences stand for … in GC…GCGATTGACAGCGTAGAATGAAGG
Quick list: PBM binding z-score per entry.
Write the number on its own, no unit after it.

Some sequences with recorded PBM binding z-score:
[[record]]
seq = "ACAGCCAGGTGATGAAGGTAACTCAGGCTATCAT"
measurement_label = "PBM binding z-score"
data_value = -0.381

[[record]]
seq = "ATCGAAAGGTCGACGAGGTGAGTCTACACCGTTT"
measurement_label = "PBM binding z-score"
data_value = 4.73

[[record]]
seq = "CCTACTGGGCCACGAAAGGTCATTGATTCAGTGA"
measurement_label = "PBM binding z-score"
data_value = 3.58


stdin: Param item = `GGAACGAGGGCATTAGAGTTGATAGCATGGCGAT` ; retrieve measured PBM binding z-score.
stdout: 0.899

stdin: What do you get for `GGAACGAGTGCATTCGAGTTGATAGCATGGCGAT` ?
stdout: -0.159

###

System: RARa homodimer (NR concentration 270 nM)
assay.text: PBM binding z-score (relative to random genomic background probes); higher = stronger binding; sequences stand for … in GC…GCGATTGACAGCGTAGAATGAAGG
Form field: PBM binding z-score (one value per entry).

[[record]]
seq = "CCTCGAAGGACAGAAGGTCAGAGCTGTCCGCTTT"
target = "RARa homodimer (NR concentration 270 nM)"
measurement_label = "PBM binding z-score"
data_value = 0.748

[[record]]
seq = "TCTGCTAGGTCTGTTGGTCAGCTAACGAGCTGCC"
target = "RARa homodimer (NR concentration 270 nM)"
measurement_label = "PBM binding z-score"
data_value = -1.79

[[record]]
seq = "TCTGCTAGGTCAACGATGGTCAGCCAATCTGCTA"
target = "RARa homodimer (NR concentration 270 nM)"
measurement_label = "PBM binding z-score"
data_value = -0.83

[[record]]
seq = "AGTCAAAGTTCACTCGGTAACGTAAGATTCAGCT"
target = "RARa homodimer (NR concentration 270 nM)"
measurement_label = "PBM binding z-score"
data_value = 1

[[record]]
seq = "GCAGACAGGCGAAACGCAGGTAACTCAGGGTGGC"
target = "RARa homodimer (NR concentration 270 nM)"
measurement_label = "PBM binding z-score"
data_value = -1.37

[[record]]
seq = "TAGCCTAGGTCAGATCGGGCCACTATACGCTATA"
target = "RARa homodimer (NR concentration 270 nM)"
measurement_label = "PBM binding z-score"
data_value = -0.348

[[record]]
seq = "TCTTGTAGATCCGCAGGTTAAGAAAGCTGGCCAA"
target = "RARa homodimer (NR concentration 270 nM)"
measurement_label = "PBM binding z-score"
data_value = -0.725

[[record]]
seq = "ATCTCTAGGTAACAAGTGCAGTGAAAGAGAGGAC"
target = "RARa homodimer (NR concentration 270 nM)"
measurement_label = "PBM binding z-score"
data_value = 0.451

[[record]]
seq = "ATTGAAAGGTCGAGGTGAGTATAGAGAAAGGGAA"
target = "RARa homodimer (NR concentration 270 nM)"
measurement_label = "PBM binding z-score"
data_value = 1.83

[[record]]
seq = "TAGCCTAGGTCATGGGCCAGTATTCCACGCGAAC"
target = "RARa homodimer (NR concentration 270 nM)"
measurement_label = "PBM binding z-score"
data_value = -0.638


stdin: For RARa homodimer (NR concentration 270 nM), provide PBM binding z-score of `ATCTCTAGGTAACCAAGTTCAGCGAATGCCGAAC` please.
stdout: 0.165

stdin: How about `TCATATAGGTAAATGCTAGGTGAAAGGCCGATCT` ?
stdout: 1.3

stdin: What about this sequence? `AGTCAAAGTCCACTAGGTAACGTAAGATTCAGCT`
stdout: 0.764

stdin: // query: `AGTCAAAGTTCAATAGGTAACGTAAGATTCAGCT`
stdout: 1.83
